Where do these numbers come from? They come from ChEMBL document CHEMBL1955798.

Record set of Ki for target or system Carbonic anhydrase 2 (Homo sapiens).

C=CCOc1cc(=O)oc2ccccc12
> 200 µM
O=c1ccc2ccc(OCCO)cc2o1
> 200 µM

Turning to the following molecule.
Request: Which Ki is reported for this molecule? "Cc1cc(=O)oc2cc(NC(=O)OC(C)(C)C)ccc12"
Result: > 200 µM
